# subject of test: δOR (Homo sapiens, UniProt P41143)
# Construct: expressed in transfected cells; host or cells: CHO cells
# Sequence (P41143 whole entry): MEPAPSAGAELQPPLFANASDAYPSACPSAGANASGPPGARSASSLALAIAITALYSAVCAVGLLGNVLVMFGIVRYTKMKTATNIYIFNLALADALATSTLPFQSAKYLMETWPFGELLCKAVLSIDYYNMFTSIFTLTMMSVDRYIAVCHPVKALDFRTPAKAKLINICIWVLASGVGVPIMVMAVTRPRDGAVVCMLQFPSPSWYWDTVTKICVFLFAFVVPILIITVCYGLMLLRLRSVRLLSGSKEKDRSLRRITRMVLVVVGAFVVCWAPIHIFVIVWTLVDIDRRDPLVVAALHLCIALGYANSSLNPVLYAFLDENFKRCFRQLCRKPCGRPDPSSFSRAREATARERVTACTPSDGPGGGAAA
# assay text: Opioid receptor competitive binding test, δOR
# condition: compound at 10 μM; [3H]-labeled ligand; CHO cell membranes; ± SD of three measurements
Counter-ions that a name gives are not always drawn.
Threshold 9%. δOR binding rate below it: Yes. δOR binding rate at it or above: No.

Solved cases below.
{"columns": ["compound", "class label"],
 "data": [
  ["[2H]C([2H])([2H])N(C)C[C@@H]1CN(S(=O)(=O)Cc2ccccc2)CC[C@@]1(O)c1cccc(OC)c1 [II-1hydrochloride]", "No"],
  ["[2H]C([2H])([2H])N(C)CC1CN(S(=O)(=O)Cc2ccccc2)CCC1(O)c1cccc(OC)c1 (centres unmarked) [I-1hydrochloride]", "No"],
  ["COc1cccc(C2(O)CCCCC2CN(C)C)c1 (centres unmarked) [Tramadol, reference compound]", "Yes"],
  ["[2H]C([2H])([2H])Oc1cccc(C2(O)CCN(S(=O)(=O)Cc3ccccc3)CC2CN(C([2H])([2H])[2H])C([2H])([2H])[2H])c1 (centres unmarked) [I-3hydrochloride]", "Yes"]
]}

Please turn your attention to the following entry.
Ask | Decide: δOR binding rate of [2H]C([2H])([2H])Oc1cccc(C2(O)CCN(C(=O)Cc3cc(F)c(F)cc3F)CC2CN(C([2H])([2H])[2H])C([2H])([2H])[2H])c1 (centres unmarked) [I-7hydrochloride] strictly below 9%?
Reply | No
